Source of measurements: PubChem BioAssay (NCI)

tested on: TK-10 renal; assay: NCI tumour cell line growth inhibition, 48 h
Reported TGI values are given for each entry in this list.

CCCC(=O)Nc1ccc2c(c1)CN1C(=O)c3ccccc3C1=N2
> 100 µM
CC(C)[Si](OC1=C(C(=O)N(C)c2ccccc2Cl)CCCCC1)(C(C)C)C(C)C
> 100 µM
CC1C2(C)OC(=N)C(C#N)(C(C)O2)C1(C#N)C#N (stereo unspecified)
> 100 µM
O=C(Nc1sccc1S(=O)(=O)c1ccc(Cl)cc1)c1ccccc1
> 100 µM
C(=NCCCN1CCN(CCCN=Cc2cccc3ccccc23)CC1)c1cccc2ccccc12
> 100 µM

Requested field: TGI. Item: O=C1CCC(N2Cc3c(C#CCCCNC(=O)c4cc5c(o4)C(=O)c4ccccc4C5=O)cccc3C2=O)C(=O)N1 (stereo unspecified) 50.2 µM

Requested field: TGI. Item: CN(C)CCNC1=CC(=O)c2nc3ccccc3c3ccnc1c23 97.5 µM

Requested field: TGI. Item: C[C@@H](CO)C1=CC(C#C[Si](C)(C)C)N(C(=O)Oc2ccccc2)c2ccccc21 (stereo partly specified) 79.5 µM

Requested field: TGI. Item: Cn1c(=O)n2c(-c3ccccc3)c(-c3ccccc3)n2c1=O > 100 µM

Requested field: TGI. Item: COc1ccc2c(c1)CCN1CCCc3ccc(OC)cc3C21 (stereo unspecified) > 100 µM

Requested field: TGI. Item: COc1ccc(-c2cc(-c3cc(C)ccc3O)[nH]c(=O)n2)cc1 > 100 µM

Requested field: TGI. Item: CCOC(=O)c1c(-c2ccccc2)nc2c(OC)nccn12 > 100 µM

Requested field: TGI. Item: CNC(=O)NC(CCCCNC(=O)OCc1ccccc1)C(=O)OCc1ccccc1 (stereo unspecified) 99 µM

---

tested on: BT-549 breast; assay: NCI tumour cell line growth inhibition, 48 h
measurement.kind: TGI

Sample answers from the record:
O=S(=O)(CCNCc1ccc(-c2ccc3ncnc(Nc4ccc(OCc5cccc(F)c5)c(Cl)c4)c3c2)o1)c1ccccc1
> 25 µM
C/C=C1/CN2CCC34c5ccccc5N(C)C23C2CC1C4(C(=O)OC)C(O)O2 (stereo unspecified)
> 100 µM
COc1c(O)c(O)c2c(c1O)C(=O)c1cc(C)cc(O)c1C2=O
> 100 µM
COC(=O)Cc1c(/C=C/C(C)(C)n2cnc(CCN3C(=O)CCC3=O)c2)[nH]c2ccccc12
> 100 µM
CN(C)C1(N(C)C)Oc2c(c(=O)n(C)c(=O)n2C)C(c2ccccc2Br)C1(F)F (stereo unspecified)
> 100 µM

Now look at this one.
Requested field: TGI. Item: c1ccc(CCN2CCOCC2)nc1 > 100 µM

---

Reported TGI values are given for each entry in this list.
system: A498 renal; assay: NCI tumour cell line growth inhibition, 48 h
Where a SMILES comes first, the peptide text is derived from it. [ ]: non-standard residue; d: D form. The star is where a group is joined. NMeF = CN[C@@H](Cc1ccccc1)C(=O)O; NMeV = CN[C@H](C(=O)O)C(C)C; Boc = CC(C)(C)OC(=O)*; OBn = c1ccc(CO*)cc1

CC(C)n1c(=O)[nH]n(-c2ccccc2)c1=O
> 100 µM
CC(C)[C@@H](C(=O)N1CCC[C@H]1C(=O)OCc1ccccc1)N(C)C(=O)[C@H](C(C)C)N(C)C(=O)[C@H](Cc1ccccc1)N(C)C(=O)[C@H](NC(=O)OC(C)(C)C)C(C)C (Boc-[dV][NMeF][NMeV][NMeV]P-OBn)
> 100 µM
CCC1c2[nH]c3ccccc3c2C[C@H]2C(=O)N3CCC[C@H]3C(=O)N12 (stereo not given in full)
> 100 µM
CCn1c(-c2nonc2N)nc2cncc(C(=O)NCCNC)c21
> 19.8 µM

Now look at this one.
Requested field: TGI. Item: O=C(O)CP(=O)(O)O > 100 µM
